assayedTarget: guinea pig Leukotriene D4 Receptor (LTD4), CYSLTR1 (gene 100135514)
protocolText: NVS_GPCR_gLTD4: NovaScreen (NVS) G Protein-Coupled Receptor Assay for guinea pig Leukotriene D4 Receptor (LTD4) (AID 2283248)
Inconclusive results are not listed. The source made the active and inactive calls. The calls were made as follows: active = hit-call score of the fitted dose curve at least 0.9, where 1 is the maximum; inconclusive = response in the unintended direction; inactive = score below 0.9.
Allowed answers: active, inactive

Record excerpt, results attached:
CCCCCCCCCCCCCCCC(=O)OC	inactive
CC(C)(C)c1ccc(O)c(O)c1	inactive
CCCCCCCCCCCCOS(=O)(=O)O	active

Ask: Write down the call the test reported for this compound. Item: CS(=O)(=O)c1ccc([C@@H](CC2CCCC2)C(=O)Nc2cnccn2)cc1Cl
Reply: inactive

---

assayedTarget: Heat shock factor protein 1 (Homo sapiens) (UniProt Q00613)
Sequence (Q00613 whole entry, looked up): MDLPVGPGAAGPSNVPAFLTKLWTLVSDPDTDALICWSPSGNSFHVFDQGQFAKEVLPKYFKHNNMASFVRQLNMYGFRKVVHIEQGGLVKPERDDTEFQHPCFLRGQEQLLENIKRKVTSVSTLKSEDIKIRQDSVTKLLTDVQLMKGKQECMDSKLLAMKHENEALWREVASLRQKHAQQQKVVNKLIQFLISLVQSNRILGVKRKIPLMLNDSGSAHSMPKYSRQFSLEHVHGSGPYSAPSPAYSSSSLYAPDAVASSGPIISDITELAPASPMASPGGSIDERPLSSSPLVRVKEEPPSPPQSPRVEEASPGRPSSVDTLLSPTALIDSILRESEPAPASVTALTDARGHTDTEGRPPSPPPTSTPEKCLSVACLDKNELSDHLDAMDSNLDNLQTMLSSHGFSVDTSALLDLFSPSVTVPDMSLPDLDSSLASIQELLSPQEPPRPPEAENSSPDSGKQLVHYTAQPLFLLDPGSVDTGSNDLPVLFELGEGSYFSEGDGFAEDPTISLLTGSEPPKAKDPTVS
protocolText: ATG_HSE_CIS: Attagene CIS-FACTORIAL HepG2 Assay for human Heat Shock Transcription Factor 1 (HSE) (AID 2282953)
studyConditions: HepG2 HSE cis-reporter, Attagene RNA transcription; actives raise or lower the signal
Active and inactive are the calls of the source. Rule for the calls: active = hit-call score of the fitted dose curve at least 0.9, where 1 is the maximum; inactive = score below 0.9.
readoutType: outcome

Illustrative cases are given below, each with its answer.
CC(=O)Nc1ccc(S(N)(=O)=O)cc1	inactive
O=C1c2ccccc2C(=O)c2c(O)c(O)cc(O)c21	inactive
Cc1ccc2ccc3ccc(C)cc3c2c1	inactive
CCCCCCCCCCCCCCCC(=O)OC	inactive
Cc1cc(Cc2cc(C)cc(C(C)(C)C)c2O)c(O)c(C(C)(C)C)c1	inactive

# next compound below
Ask: What value of outcome has been recorded for this entry: CC1CCC(CO)CC1 (stereo unspecified)
Reply: inactive

---

Read-out: Heat shock 70 kDa protein 1 (HSPA1A), gene 3303
protocolText: LTEA_HepaRG_HSPA1A: Life Technologies and Expression Analysis (LTEA) Assay for Heat shock 70 kDa protein 1 (HSPA1A) using HepaRG (AID 2283502)
studyConditions: mRNA level, 48 h; actives raise or lower the signal
Activity calls are given as the source filed them. Rule for the calls: active = hit-call score of the fitted dose curve at least 0.9, where 1 is the maximum; inactive = score below 0.9.
readoutType: AC50

Illustrative cases are given below, each with its answer.
CCC(C)c1ccccc1O (centres undefined)	inactive
CC(=O)Nc1ccc(O)cc1	inactive
CN(C)CCOC(c1ccccc1)c1ccccc1	inactive
CCCCc1oc2ccccc2c1C(=O)c1cc(I)c(OCCN(CC)CC)c(I)c1	60 µM (active)
O=C(CCCN1CCC(O)(c2ccc(Cl)cc2)CC1)c1ccc(F)cc1	74.3 µM (active)
N=C(N)c1ccc(OCCCCCOc2ccc(C(=N)N)cc2)cc1	26.5 µM (active)
CCCCC(CC)C(=O)O (centres undefined)	inactive
O=C1NS(=O)(=O)c2ccccc21	inactive

# next compound below
Ask: What value of AC50 has been recorded for this entry: CCCCCCCCCCCCCCC
Reply: inactive

---

protocolText: ATG_PBREM_CIS: Attagene CIS-FACTORIAL HepG2 Assay for human Phenobarbital-responsive Enhancer Module (PBREM) (AID 2282955)
studyConditions: HepG2 PBREM cis-reporter, Attagene multiplexed transcription; actives raise or lower the signal
Calls of active or inactive are those of the source. Rule for the calls: active = hit-call score of the fitted dose curve at least 0.9, where 1 is the maximum; inactive = score below 0.9.
Allowed answers: 1 = active, 0 = inactive

Record excerpt, results attached:
CCc1ccccc1O	0
C=CC(C)(CCC=C(C)C)OC(C)=O (centres undefined)	0
Oc1ccc(Cc2ccccc2O)cc1	0
O=C1Cc2ccccc2N1c1c(Cl)cccc1Cl	1

Ask: Write down the call the test reported for this compound. Item: NCc1cccc(CN)c1
Reply: 0

Ask: Write down the call the test reported for this compound. Item: O=C(O)CCC(F)(F)C(F)(F)C(F)(F)C(F)(F)C(F)(F)F
Reply: 0

Ask: Write down the call the test reported for this compound. Item: C=CC(=O)OCCC(F)(F)C(F)(F)C(F)(F)C(F)(F)C(F)(F)C(F)(F)C(F)(F)C(F)(F)F
Reply: 0

Ask: Write down the call the test reported for this compound. Item: CC(=O)Nc1ccc(S(N)(=O)=O)cc1
Reply: 0

Ask: Write down the call the test reported for this compound. Item: O=C(O)CN(CCCN(CC(=O)O)CC(=O)O)CC(=O)O
Reply: 0

Ask: Write down the call the test reported for this compound. Item: C=COC(=O)C(C)(C)CCCCCC
Reply: 0

Ask: Write down the call the test reported for this compound. Item: CCCCCCCCCCCC[N+](C)(C)CCCCCCCCCCCC
Reply: 1

---

assayedTarget: Cellular tumor antigen p53 (Homo sapiens) (UniProt P04637)
Sequence (P04637 whole entry, looked up): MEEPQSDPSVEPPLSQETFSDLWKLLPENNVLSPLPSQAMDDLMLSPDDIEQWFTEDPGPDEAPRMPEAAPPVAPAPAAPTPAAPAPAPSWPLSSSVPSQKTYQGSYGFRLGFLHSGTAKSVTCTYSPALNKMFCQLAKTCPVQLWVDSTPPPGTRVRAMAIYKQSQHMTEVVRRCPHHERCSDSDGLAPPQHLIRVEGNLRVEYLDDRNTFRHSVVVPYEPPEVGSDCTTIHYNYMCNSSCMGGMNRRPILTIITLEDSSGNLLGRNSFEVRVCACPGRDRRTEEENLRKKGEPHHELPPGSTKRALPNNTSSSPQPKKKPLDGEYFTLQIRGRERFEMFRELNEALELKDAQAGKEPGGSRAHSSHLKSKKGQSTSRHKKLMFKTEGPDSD
protocolText: TOX21_p53_BLA_p4_ratio: Tox21 HCT-116 p53 Agonism Beta-lactamase Assay, Ratio, Phase 4 (AID 2283601)
Results filed as inconclusive are left out. Calls of active or inactive are those of the source. The calls were made as follows: active = hit-call score of the fitted dose curve at least 0.9, where 1 is the maximum; inconclusive = response in the unintended direction; inactive = score below 0.9.
Allowed answers: active, inactive

Record excerpt, results attached:
O=C(c1ccccc1)c1ccccc1	inactive
CCC(=O)O	inactive
O=C(NO)c1ccccc1	inactive

Ask: Write down the call the test reported for this compound. Item: NCc1cccc(CN)c1
Reply: inactive

Ask: Write down the call the test reported for this compound. Item: CC(=O)CC(C)C
Reply: inactive

Ask: Write down the call the test reported for this compound. Item: COc1ccccc1NC(=O)c1cc2ccccc2cc1O
Reply: active

Ask: Write down the call the test reported for this compound. Item: CC1=CC(=O)c2ccccc2C1=O
Reply: inactive

Ask: Write down the call the test reported for this compound. Item: O=C1c2ccccc2C(=O)c2c(O)c(O)cc(O)c21
Reply: active

Ask: Write down the call the test reported for this compound. Item: C=CC(=O)OCC(CO)(COCC(COC(=O)C=C)(COC(=O)C=C)COC(=O)C=C)COC(=O)C=C
Reply: active

Ask: Write down the call the test reported for this compound. Item: CC(C)(C)c1ccc(CCC=O)cc1
Reply: inactive

Ask: Write down the call the test reported for this compound. Item: C=CC(C)(CCC=C(C)C)OC(C)=O (centres undefined)
Reply: inactive

Ask: Write down the call the test reported for this compound. Item: Cc1ccc(C)c(S(=O)(=O)O)c1
Reply: inactive

Ask: Write down the call the test reported for this compound. Item: NNc1nc(-c2ccc([N+](=O)[O-])cc2)cs1
Reply: active

Ask: Write down the call the test reported for this compound. Item: CCN(CC)CC
Reply: inactive

Ask: Write down the call the test reported for this compound. Item: NC(=NCCCCCCN=C(N)/N=C(\N)Nc1ccc(Cl)cc1)/N=C(\N)Nc1ccc(Cl)cc1
Reply: active

Ask: Write down the call the test reported for this compound. Item: O=C1OC(=O)c2cc(-c3ccc4c(c3)C(=O)OC4=O)ccc21
Reply: inactive

Ask: Write down the call the test reported for this compound. Item: O=C(O)c1cccc(C(=O)O)n1
Reply: inactive

Ask: Write down the call the test reported for this compound. Item: NCCN
Reply: inactive

Ask: Write down the call the test reported for this compound. Item: CCCCCCCCCCCC(=O)NCCCN(C)C
Reply: active

---

protocolText: ATG_BRE_CIS: Attagene CIS-FACTORIAL HepG2 Assay for human Bone Morphogenetic Protein (BMP) Response Element (BRE) (AID 2282933)
studyConditions: HepG2 BMP response element reporter, Attagene transcription factor profiling; actives raise or lower the signal
Activity calls are given as the source filed them. Rule for the calls: active = hit-call score of the fitted dose curve at least 0.9, where 1 is the maximum; inactive = score below 0.9.
Allowed answers: 1.0 for active, 0.0 for inactive

Record excerpt, results attached:
Oc1c(Cl)cc(Cl)cc1Sc1cc(Cl)cc(Cl)c1O	1.0
Nc1ccn([C@@H]2O[C@H](CO)[C@@H](O)C2O)c(=O)n1 (stereo partly drawn)	0.0
O=C(O)C(F)(F)OC(F)(F)C(F)(F)OC(F)(F)C(F)(F)OC(F)(F)C(F)(F)C(F)(F)C(F)(F)F	0.0
NCCN	0.0
CCCCc1ccc2ccccc2c1S(=O)(=O)O	0.0
OCC1CCC(CO)CC1 (stereo not drawn)	0.0
C=CC(=C)CC/C=C(\C)CCC=C(C)C	0.0
CCOC=C(C(=O)OCC)C(=O)OCC	0.0
CC(C)CCOCCC(C)C	0.0
FC(F)(F)C1(F)C(F)(F)C(F)(F)C(F)(F)C1(F)F	0.0

Let's switch to this molecule now.
Ask: Write down the call the test reported for this molecule. Item: FC(OC(F)(F)C(F)(F)C(F)(F)F)C(F)(F)F (stereo not drawn)
Reply: 0.0

---

protocolText: ATG_BRE_CIS: Attagene CIS-FACTORIAL HepG2 Assay for human Bone Morphogenetic Protein (BMP) Response Element (BRE) (AID 2282933)
studyConditions: HepG2 BMP response element reporter, Attagene transcription factor profiling; actives raise or lower the signal
Active and inactive are the calls of the source. The calls were made as follows: active = hit-call score of the fitted dose curve at least 0.9, where 1 is the maximum; inactive = score below 0.9.
Allowed answers: YES (active), NO (inactive)

Record excerpt, results attached:
CCCCCCCCC1CCC(=O)O1 (centres undefined)	NO
Cc1cc(C(C)(C)C)c(O)c(C(C)(C)C)c1	NO
Cc1cc(=O)oc2cc(O)ccc12	NO
CCC(C)c1ccccc1O (centres undefined)	NO
COc1cc([N+](=O)[O-])ccc1N	NO
CNNCc1ccc(C(=O)NC(C)C)cc1	NO
FC(F)(F)C(F)(F)C(F)(F)Br	NO
CCCCCCCCCCCC(=O)NCCCN(C)C	YES

Ask: Write down the call the test reported for this molecule. Item: CCCCCCCCCCCC
Reply: NO

Ask: Write down the call the test reported for this molecule. Item: CN(CCO)S(=O)(=O)C(F)(F)C(F)(F)C(F)(F)C(F)(F)C(F)(F)C(F)(F)C(F)(F)C(F)(F)F
Reply: NO

Ask: Write down the call the test reported for this molecule. Item: CCO[Si](CCC1CCC2OC2C1)(OCC)OCC (centres undefined)
Reply: NO
